assay.notes: Caco-2 Permeability Assay
Assay type: in vitro ADME
assay.conditions: human, Caco-2, test compound 3 μM

[
  {
    "compound": "CC(C)(O)CCc1cn(-c2cnc(-n3ncc4cc(C#N)cnc43)cc2NC2CCC(F)CC2)nn1 (stereo not shown)",
    "Papp at 2 h, 3 µM": "3.2 ×10⁻⁶ cm/s"
  },
  {
    "compound": "CCC(C)(O)Cn1cc(-c2cnc(-n3ncc4cc(C#N)cnc43)cc2NC(C)C)nn1 (single isomer, unassigned)",
    "Papp at 2 h, 3 µM": "12.4 ×10⁻⁶ cm/s"
  },
  {
    "compound": "CNCCCc1cc(-c2cnc(-n3ncc4cc(C#N)cnc43)cc2NC(C)C)on1",
    "Papp at 2 h, 3 µM": "< 1.5 ×10⁻⁶ cm/s"
  },
  {
    "compound": "CC(=O)N1CC[C@@H](n2cc(-c3cnc(-n4ncc5cc(C#N)cnc54)cc3NC(C)C)nn2)[C@H](O)C1 (single isomer, unassigned) [Example 203]",
    "Papp at 2 h, 3 µM": "< 1.5 ×10⁻⁶ cm/s"
  },
  {
    "compound": "CC(F)Cc1cn(-c2cnc(-n3ncc4cc(C#N)cnc43)cc2NC(C)C)nn1 (single isomer, unassigned)",
    "Papp at 2 h, 3 µM": "47.4 ×10⁻⁶ cm/s"
  },
  {
    "compound": "CC(C)(O)CCc1cn(-c2cnc(-n3ncc4cc(C#N)cnc43)cc2NC2COC2)nn1",
    "Papp at 2 h, 3 µM": "< 1.5 ×10⁻⁶ cm/s"
  },
  {
    "compound": "COC(=O)N1CC(c2cc(-c3cnc(-n4ncc5cc(C#N)cnc54)cc3NC(C)C)on2)C1",
    "Papp at 2 h, 3 µM": "28 ×10⁻⁶ cm/s"
  }
]

###

Below are pIC50 values recorded for IRAK4 (Homo sapiens (Human)).
pIC50: −log10 of the molar value. Structures can show the parent of a compound that is named as a salt.
experimental.readout: pIC50

[
  {
    "compound": "Cc1nnc(N2CC(n3cc(-c4cnc(-n5ncc6cc(C#N)cnc65)cc4NC(C)C)nn3)C2)o1 [Example 148]",
    "observed.result": 8.30
  },
  {
    "compound": "CC(C)Nc1cc(-n2ncc3cc(C#N)cnc32)ncc1-c1cn(C2CCOC2)nn1 (centres unmarked) [Example 214]",
    "observed.result": 8.15
  },
  {
    "compound": "CCCc1cn(-c2cnc(-n3cnc4cc(C#N)cnc43)cc2NC2COC2)nn1 [Example 277]",
    "observed.result": 7.06
  },
  {
    "compound": "CCCn1cc(-c2cnc(-n3cnc4cc(C#N)cnc43)cc2NC2CCOCC2)nn1 [Example 50]",
    "observed.result": 8.30
  },
  {
    "compound": "CC(C)Nc1cc(-n2ncc3cc(C#N)cnc32)ncc1-c1cn(-c2ccc(F)cc2)nn1 [Example 109]",
    "observed.result": 6.66
  },
  {
    "compound": "CC(C)Nc1cc(-n2ncc3cc(C#N)cnc32)ncc1-c1cn(CCCc2ccccc2)nn1 [Example 130]",
    "observed.result": 8.30
  },
  {
    "compound": "CC(C)Nc1cc(-n2ncc3cc(C#N)cnc32)ncc1-c1cn(CCCCO)nn1 [Example 124]",
    "observed.result": 8.70
  },
  {
    "compound": "CC(=O)N1CC(c2cc(-c3cnc(-n4ncc5cc(C#N)cnc54)cc3NC(C)C)on2)C1 [Example 398]",
    "observed.result": 8.40
  },
  {
    "compound": "CC(C)Nc1cc(-n2ncc3cc(C#N)cnc32)ncc1-c1cn([C@@H]2CCN(S(C)(=O)=O)C[C@@H]2O)nn1 [Example 188]",
    "observed.result": 7.74
  },
  {
    "compound": "CC(C)(O)CCc1cn(-c2cnc(-n3ncc4cc(C#N)cnc43)cc2NC(CF)CF)nn1 [Example 377]",
    "observed.result": 8.15
  },
  {
    "compound": "CC(C)Nc1cc(-n2ncc3cc(C#N)cnc32)ncc1-n1cc(CCO)cn1 [Example 242]",
    "observed.result": 7.33
  },
  {
    "compound": "CC(C)Nc1cc(-n2ncc3cc(C#N)cnc32)ncc1-c1cn(CCCc2ccccc2)cn1 [Example 241]",
    "observed.result": 7.46
  },
  {
    "compound": "CC(C)Nc1cc(-n2ncc3cc(Cl)cnc32)ncc1-c1cn(C)nn1 [Example 165]",
    "observed.result": 7.60
  },
  {
    "compound": "CC(C)Nc1cc(-n2ncc3cc(C#N)cnc32)ncc1-n1ccc(C(F)(F)F)n1 [Example 247]",
    "observed.result": 6.69
  },
  {
    "compound": "CC(C)Nc1cc(-n2ncc3cc(C#N)cnc32)ncc1-n1cc(-c2ccccn2)nn1 [Example 304]",
    "observed.result": 6.94
  },
  {
    "compound": "CC(C)Nc1cc(-n2ncc3cc(C#N)cnc32)ncc1-c1cn(-c2cccnc2)nn1 [Example 174]",
    "observed.result": 7.77
  },
  {
    "compound": "CC(C)Nc1cc(-n2ncc3cc(C#N)cnc32)ncc1-n1cc(C2CCC(N)CC2)nn1 (centres unmarked) [Example 340]",
    "observed.result": 8.40
  },
  {
    "compound": "CC(C)Nc1cc(-n2ncc3cc(C#N)cnc32)ncc1-c1cn([C@@H]2CCNC[C@@H]2O)nn1 [Example 186]",
    "observed.result": 7.80
  },
  {
    "compound": "CCCn1cc(-c2cnc(-n3ncc4cc(C#N)cnc43)cc2NCC)nn1 [Example 54]",
    "observed.result": 8.05
  },
  {
    "compound": "CC(C)Nc1cc(-n2ncc3cc(C#N)cnc32)ncc1-c1cn(C[C@@H](N)Cc2ccccc2)nn1 [Example 168]",
    "observed.result": 7.62
  },
  {
    "compound": "CC(F)Cc1cn(-c2cnc(-n3cnc4cc(C#N)cnc43)cc2NC(C)C)nn1 (single isomer, unassigned) [Example 291]",
    "observed.result": 7.85
  },
  {
    "compound": "CCn1cnc(-c2cnc(-n3ncc4cc(C#N)cnc43)cc2NC(C)C)c1 [Example 227]",
    "observed.result": 7.54
  },
  {
    "compound": "CC(C)Nc1cc(-n2ncc3cc(C#N)cnc32)ncc1-c1cn(C2CCOC2)nn1 (centres unmarked) [Example 215]",
    "observed.result": 8.10
  },
  {
    "compound": "CCCn1cc(-c2cnc(-n3ncc4cc(C#N)c(N)nc43)cc2NC(C)C)nn1 [Example 33]",
    "observed.result": 8.52
  },
  {
    "compound": "CC(=O)N1CC(n2cc(-c3cnc(-n4ccc5cc(C#N)cnc54)cc3NC(C)C)nn2)C1 [Example 162, TFA]",
    "observed.result": 8.40
  },
  {
    "compound": "CC(C)Nc1cc(-n2ncc3cc(C#N)cnc32)ncc1-c1cn(C[C@@H](O)c2ccccc2)nn1 [Example 84]",
    "observed.result": 8.30
  },
  {
    "compound": "CC(C)(O)CCc1cn(-c2cnc(-n3ncc4cc(C#N)cnc43)cc2NC2CCC(F)(F)C2)nn1 (single isomer, unassigned) [Example 347]",
    "observed.result": 8.70
  },
  {
    "compound": "COC(=O)N[C@H]1CC[C@H](n2cc(-c3cnc(-n4ncc5cc(C#N)cnc54)cc3NC(C)C)nn2)CC1 [Example 393]",
    "observed.result": 8.70
  },
  {
    "compound": "CC(C)Nc1cc(-n2ncc3cc(C#N)cnc32)ncc1-n1cc(CN)nn1 [Example 310]",
    "observed.result": 6.97
  },
  {
    "compound": "CC(C)Nc1cc(-n2ncc3cnc(N)nc32)ncc1-n1cc(CCC(C)(C)O)nn1 [Example 380]",
    "observed.result": 8.22
  },
  {
    "compound": "CC(C)Nc1cc(-n2ncc3cc(C#N)cnc32)ncc1-c1cn(CCO)nn1 [Example 11]",
    "observed.result": 7.96
  },
  {
    "compound": "CC(C)Nc1cc(-n2ncc3cncnc32)ncc1-c1cnn(CC(F)(F)F)c1 [Example 262]",
    "observed.result": 6.54
  }
]
